pEC50 values, listed per item
biological target: CFTR ΔF508 mutant (Homo sapiens, UniProt P13569, DEL508-508); construct: expressed in transfected cells; host or cells: CFBE41o- cells transduced with adenoviral vectors; assay: YFP-halide influx assay for the CFTR-ΔF508 mutation; assay type: cell-based; details: CFBE41o- cells expressing CFTR ΔF508 and YFP reporter; forskolin 10.67 μM; (1-F/F0) vs concentration
Sequence (P13569 with tags, fused parts or gaps DEL508-508): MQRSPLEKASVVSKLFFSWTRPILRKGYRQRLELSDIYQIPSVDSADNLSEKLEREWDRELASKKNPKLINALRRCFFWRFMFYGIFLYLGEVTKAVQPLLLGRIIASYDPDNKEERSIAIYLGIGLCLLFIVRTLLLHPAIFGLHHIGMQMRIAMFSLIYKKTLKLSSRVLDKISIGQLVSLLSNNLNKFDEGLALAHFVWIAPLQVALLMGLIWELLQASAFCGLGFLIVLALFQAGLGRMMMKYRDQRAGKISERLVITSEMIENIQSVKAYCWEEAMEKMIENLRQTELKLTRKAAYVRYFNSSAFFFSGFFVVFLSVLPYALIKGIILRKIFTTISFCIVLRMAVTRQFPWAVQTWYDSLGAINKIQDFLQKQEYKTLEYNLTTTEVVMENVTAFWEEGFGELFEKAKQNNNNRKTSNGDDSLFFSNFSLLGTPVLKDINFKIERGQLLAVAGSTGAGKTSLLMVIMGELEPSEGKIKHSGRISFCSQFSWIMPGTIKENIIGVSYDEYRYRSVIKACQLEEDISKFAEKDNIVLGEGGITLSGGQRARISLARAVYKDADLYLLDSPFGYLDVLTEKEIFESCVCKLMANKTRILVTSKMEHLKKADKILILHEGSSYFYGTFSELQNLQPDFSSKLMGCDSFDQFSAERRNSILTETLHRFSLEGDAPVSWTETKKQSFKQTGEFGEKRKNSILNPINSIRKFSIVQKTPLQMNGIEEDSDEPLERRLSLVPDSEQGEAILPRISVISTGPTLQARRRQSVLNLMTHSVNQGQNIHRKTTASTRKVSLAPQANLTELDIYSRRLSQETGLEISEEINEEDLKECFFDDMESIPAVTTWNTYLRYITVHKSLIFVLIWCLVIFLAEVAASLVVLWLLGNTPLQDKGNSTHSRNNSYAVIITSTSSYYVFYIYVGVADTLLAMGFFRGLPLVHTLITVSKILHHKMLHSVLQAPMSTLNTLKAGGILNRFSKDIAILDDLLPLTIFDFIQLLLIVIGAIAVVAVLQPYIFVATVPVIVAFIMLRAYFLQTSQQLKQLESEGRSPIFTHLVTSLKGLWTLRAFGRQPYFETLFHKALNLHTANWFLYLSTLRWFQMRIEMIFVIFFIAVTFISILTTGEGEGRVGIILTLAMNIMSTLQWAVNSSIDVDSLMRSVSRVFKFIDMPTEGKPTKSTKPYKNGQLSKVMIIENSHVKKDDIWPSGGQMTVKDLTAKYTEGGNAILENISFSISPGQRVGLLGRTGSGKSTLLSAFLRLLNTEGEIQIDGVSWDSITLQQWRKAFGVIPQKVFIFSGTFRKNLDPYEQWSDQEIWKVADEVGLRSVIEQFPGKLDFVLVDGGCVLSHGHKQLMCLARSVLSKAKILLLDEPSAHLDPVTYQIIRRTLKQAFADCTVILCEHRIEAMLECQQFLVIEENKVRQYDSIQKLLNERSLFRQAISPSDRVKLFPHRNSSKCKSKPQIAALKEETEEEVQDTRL
Here pEC50 is given on a logarithmic scale as minus log10 of the concentration in mol/L.

Nc1cc(S(=O)(=O)c2cccc(OC(F)(F)F)c2)cnc1-c1nnc(CO)o1 [Compound 58] ... 8.45

Under CFTR ΔF508 mutant (Homo sapiens, UniProt P13569, DEL508-508): pEC50 value of C[C@@](O)(c1nnc(-c2ncc(S(=O)(=O)c3ccc(OC(F)(F)F)cc3)cc2N)s1)C(F)(F)F [Compound 20] ?
8.09

Short answer please: pEC50, CFTR ΔF508 mutant (Homo sapiens, UniProt P13569, DEL508-508), entry Nc1cc(S(=O)(=O)c2ccc(OC(F)(F)F)cc2)cnc1-c1nnc(C2CCCCC2)o1 [Compound 10]
7.83

Could you share what pEC50 was measured for CCOCc1nnc(-c2ncc(S(=O)(=O)c3ccc(OC(F)(F)F)cc3)cc2N)s1 [Compound 25] , tested on CFTR ΔF508 mutant (Homo sapiens, UniProt P13569, DEL508-508)?
8.36

Which pEC50 is reported with CFTR ΔF508 mutant (Homo sapiens, UniProt P13569, DEL508-508) for this entry: Nc1c(-c2nnc(CO)o2)ncc(S(=O)(=O)c2ccc(OC(F)(F)F)cc2)c1Cl [Compound 57] ?
8.62

Under CFTR ΔF508 mutant (Homo sapiens, UniProt P13569, DEL508-508): pEC50 value of COCc1nnc(-c2ncc(S(=O)(=O)c3ccc(OC(F)(F)F)cc3)cc2N)o1 [Compound 37] ?
7.54

Write down the reported pEC50 of Nc1cc(S(=O)(=O)c2ccccc2OC(F)(F)F)cnc1-c1nnc(CO)o1 [Compound 59] , test system: CFTR ΔF508 mutant (Homo sapiens, UniProt P13569, DEL508-508).
8.37

GET /values?readout=pEC50&system=CFTR ΔF508 mutant (Homo sapiens, UniProt P13569, DEL508-508)&item= Nc1cc(S(=O)(=O)c2ccc(OC(F)(F)F)cc2)cnc1-c1nnc(COc2cccnc2)o1 [Compound 38]
6.65

What reported pEC50 corresponds to CO[C@H](C)c1nnc(-c2ncc(S(=O)(=O)c3ccc(OC(F)(F)F)cc3)cc2N)s1 [Compound 21] on CFTR ΔF508 mutant (Homo sapiens, UniProt P13569, DEL508-508)?
8.07

Entry Nc1cc(S(=O)(=O)c2ccc(OC(F)(F)F)cc2)cnc1-c1nnco1 [Compound 6] , system CFTR ΔF508 mutant (Homo sapiens, UniProt P13569, DEL508-508): what pEC50 was measured?
7.11
